protocol details: Plasma and brain protein binding, rapid equilibrium dialysis (RED)
Assay type: in vitro ADME, mouse
measurement context: mouse plasma, read-out: fu in Plasma
outcome measure: fraction unbound at 4 h, 500 ng/mL
Could you respond with only the numeric value?

query: Any idea what fraction unbound at 4 h, 500 ng/mL was measured for N[C@@H](Cc1c[nH]cn1)C(=O)NCc1cccc2ccccc12 [Compound 10c] ?
result: 0.45

---

system tested: Neurolysin (Nln) (Rattus norvegicus, UniProt P42676)
Construct: polyhistidine (N); made in house; host or cells: Escherichia coli (pBAD/His vector), if the rat enzyme of b61 was used
Sequence (P42676 38-704): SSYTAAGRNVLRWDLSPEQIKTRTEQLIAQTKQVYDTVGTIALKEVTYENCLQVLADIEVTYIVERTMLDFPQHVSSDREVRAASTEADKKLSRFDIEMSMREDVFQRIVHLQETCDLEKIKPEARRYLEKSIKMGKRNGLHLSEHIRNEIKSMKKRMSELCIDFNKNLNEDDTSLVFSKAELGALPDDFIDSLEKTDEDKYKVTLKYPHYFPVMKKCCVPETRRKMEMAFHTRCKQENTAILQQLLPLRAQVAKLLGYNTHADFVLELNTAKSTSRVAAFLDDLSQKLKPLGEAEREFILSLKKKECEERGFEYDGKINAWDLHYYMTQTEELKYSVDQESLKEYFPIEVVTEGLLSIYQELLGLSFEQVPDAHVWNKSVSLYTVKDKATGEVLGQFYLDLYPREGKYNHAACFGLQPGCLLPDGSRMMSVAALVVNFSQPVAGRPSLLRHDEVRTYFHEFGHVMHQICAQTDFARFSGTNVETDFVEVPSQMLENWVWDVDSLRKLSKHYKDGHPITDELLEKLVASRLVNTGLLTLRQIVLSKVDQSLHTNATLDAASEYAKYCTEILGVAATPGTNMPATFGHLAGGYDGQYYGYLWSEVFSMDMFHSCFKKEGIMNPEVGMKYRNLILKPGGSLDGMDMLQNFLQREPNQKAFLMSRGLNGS
protocol details: Nln activation in isolated enzyme assay (A50, Amax)
Type: biochemical
measurement context: 100% = normal enzyme turnover; 95% CI in parentheses
Square brackets hold non-standard residues; d marks the D form. Peptide text beside a SMILES is read from it. * marks the point of attachment. Boc = CC(C)(C)OC(=O)*
outcome measure: Amax (maximum % activation achieved)

Completed entries (count: 5):
[[record]]
compound = "N[C@@H](Cc1c[nH]cn1)C(=O)NCCc1ccccc1 [NK-61-4A]"
result = "231 (216.2 to 248.9) %"

[[record]]
compound = "N[C@@H](Cc1c[nH]cn1)C(=O)NCc1ccc2ccccc2c1 [Compound 10a]"
result = "210.9 (191.7 to 231.9) %"

[[record]]
compound = "N[C@H](Cc1c[nH]cn1)C(=O)NCCc1ccccc1 [Compound 4d]"
result = "294.6 (278.0 to 313) %"

[[record]]
compound = "N[C@@H](Cc1c[nH]cn1)C(=O)N[C@H](Cc1c[nH]cn1)C(=O)O"
result = "202.8 (192.2 to 213.4) %"

[[record]]
compound = "N[C@@H](Cc1ccc(O)cc1)C(=O)N[C@H](Cc1c[nH]cn1)C(=O)O [Compound 4a, H-Try-His-OH] (H-Tyr-[dH]-OH)"
result = "Inactive"


query: # query: Amax (maximum % activation achieved) of entry CC(C)(C)OC(=O)N[C@@H](Cc1c[nH]cn1)C(=O)N[C@H](Cc1ccccc1)C(=O)O [NK-61-2A] (Boc-His-[dF]-OH)
result: Inactive

query: Follow-up entry: CC(C)(C)OC(=O)N[C@@H](Cc1c[nH]cn1)C(=O)NCCc1cc2ccccc2[nH]1
result: Inactive

query: What would you report for N[C@@H](Cc1c[nH]cn1)C(=O)NCCc1ccc(F)cc1 [Compound 4m] ?
result: 323.1 (311.4 to 335.6) %

Cited source: patent US20210198647A1
